In this section, each of the binders is paired with its reported SPOT intensity.
Molecular target: T1, Sla1-3, P32790
T1 sequence (P32790 344-424, looked up): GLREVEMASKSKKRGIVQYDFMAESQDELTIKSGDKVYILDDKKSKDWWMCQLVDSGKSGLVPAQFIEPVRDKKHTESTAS
Test: SPOT array
Conditions: median of control spots 5475
property.label: SPOT intensity

- NSVPIMPTLPPRPYI: 0
- LTRRFPFLFPFDTRM: 129
- YRRKSIPFAPHQITA: 28
- MAMRPIPPLPTESEY: 0
- NVLRKILEIPLHSFS: 0
- RRARRQMGIPTISQV: 14
- QQNRPLPQLPNRNNR: 10
- PSRRAPLQLPQLVNK: 0
- EREKALPPIPFTTTL: 0
- APPPPPRRATPEKKP: 0
- DHPKGPPPPPPPDEK: 12
- RSVKRPRRAPRPVVS: 25
- PPPPPPPPPPPLPQS: 0
- ANNQGPPNLPARDKS: 0
- GQYRRTIVIPRRFFT: 58
